Counter-ions that a name gives are not always drawn.
Would you kindly list melting point for each of these compounds?

Asked: Consider the compound COC(=O)C1(c2ccccc2)CCN(CCCNC(=O)C2=C(C)NC(C)=C(C(=O)O)C2c2ccc([N+](=O)[O-])cc2)CC1 (centres unmarked) and give its recorded melting point.
Given back: 139 to 141 °C

Asked: Consider the compound COC(=O)C1=C(C)NC(C)=C(C(=O)NCCCN2CCC(c3ccccc3)CC2)C1c1ccc(C)cc1 (centres unmarked) and give its recorded melting point.
Given back: 139 to 139.5 °C

Asked: Consider the compound CCOC(=O)C1=C(CC(=O)NCCCN2CCC(c3ccccc3)(c3ccccc3)CC2)NC(C)=C(C(=O)OC)C1c1ccc([N+](=O)[O-])cc1 (centres unmarked) (as salt: fumarate) and give its recorded melting point.
Given back: 134 to 137 °C

Asked: Consider the compound COC(=O)C1=C(C)NC(C)=C(C(=O)OCCCN2CCC(c3ccccc3)CC2)C1c1ccc([N+](=O)[O-])cc1 (centres unmarked) (as salt: hydrochloride) (hydrate or solvate) [Example 48, hydrochloride hydrate] and give its recorded melting point.
Given back: 139 to 140 °C

Asked: Consider the compound CCC1=C(C(=O)O)C(c2ccc([N+](=O)[O-])cc2)C(C(=O)NCCCN2CCC(c3ccccc3)(c3ccccc3)CC2)=C(COCCN)N1 (centres unmarked) and give its recorded melting point.
Given back: 180 °C (dec.)

---

target under test: α1C Human Adrenergic Receptor (Homo sapiens)
Construct: The entire coding region of α1C (1401 bp); expressed in transfected cells
Sequence (P35348 whole entry): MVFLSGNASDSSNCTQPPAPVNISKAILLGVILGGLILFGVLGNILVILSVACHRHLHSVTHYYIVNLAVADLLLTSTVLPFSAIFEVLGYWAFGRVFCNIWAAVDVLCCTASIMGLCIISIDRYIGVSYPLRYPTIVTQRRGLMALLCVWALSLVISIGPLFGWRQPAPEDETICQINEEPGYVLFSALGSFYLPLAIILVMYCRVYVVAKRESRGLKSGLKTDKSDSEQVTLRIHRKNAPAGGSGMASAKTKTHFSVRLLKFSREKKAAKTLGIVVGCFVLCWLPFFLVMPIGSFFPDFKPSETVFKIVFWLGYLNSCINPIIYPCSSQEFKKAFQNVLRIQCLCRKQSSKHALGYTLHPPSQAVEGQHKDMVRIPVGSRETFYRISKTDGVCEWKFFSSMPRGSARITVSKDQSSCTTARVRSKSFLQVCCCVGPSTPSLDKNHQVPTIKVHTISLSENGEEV
experiment summary: Radioligand binding, [3H]prazosin, cloned human α1C adrenergic receptor
test settings: pKi alpha-1 1c, cloned human receptor in LM(tk-) cell membranes, SEM and n in lines below
Structures can show the parent of a compound that is named as a salt.
Would you kindly list Ki for each of these molecules?
Quick note: give the figure in nM, leave out the unit.

Asked: Consider the molecule CCC1=C(C(N)=O)C(c2ccc([N+](=O)[O-])cc2)C(C(=O)NCCCN2CCC(c3ccccc3)(c3ccccc3)CC2)=C(C)N1 (stereo not drawn) [Example 41] and give its recorded Ki.
Given back: 1.82

Asked: Consider the molecule CCC1=C(C(N)=O)C(c2ccc([N+](=O)[O-])cc2)C(C(=O)NCCCN2CCC(c3ccccc3)(c3ccccc3)CC2)=C(CC)N1 (stereo not drawn) [Example 42] and give its recorded Ki.
Given back: 1.26

Asked: Consider the molecule COC(=O)C1=C(C)NC(C)=C(C(=O)NCCCN2CCC(c3ccccc3)(c3ccccc3)CC2)C1c1cc[n+]([O-])cc1 (stereo not drawn) [Example 9] and give its recorded Ki.
Given back: 24

Asked: Consider the molecule COC(=O)C1=C(C)NC(c2ccoc2)=C(C(=O)NCCCN2CCC(c3ccccc3)(c3ccccc3)CC2)C1c1ccc([N+](=O)[O-])cc1 (stereo not drawn) [Example 43, hydrochloride salt] and give its recorded Ki.
Given back: 2.4

Asked: Consider the molecule COC(=O)C1=C(C)NC(C)=C(C(=O)NCCCN2CCC(c3ccccc3)(c3ccccc3)CC2)C1c1cccnc1 (stereo not drawn) [Example 14] and give its recorded Ki.
Given back: 40.7

Asked: Consider the molecule CC1=C(C(N)=O)C(c2ccc([N+](=O)[O-])cc2)C(C(=O)NCCN2CCC(c3ccccc3)(c3ccccc3)CC2)=C(C)N1 (stereo not drawn) [Example 54, hydrochloride hydrate] and give its recorded Ki.
Given back: 12.3

Asked: Consider the molecule CCC1=C(C(=O)NCCCN2CCC(c3ccccc3)(c3ccccc3)CC2)C(c2ccc([N+](=O)[O-])cc2)C(C(=O)OCc2ccccc2)=C(C)N1 (stereo not drawn) [Example 4, Hydrochloride Salt, Hydrate] and give its recorded Ki.
Given back: 67.6

Asked: Consider the molecule CC1=C(C(=O)NCCCN2CCC(c3ccccc3)(c3ccccc3)CC2)C(c2ccc([N+](=O)[O-])cc2)C2=C(CCCC2=O)N1 (stereo not drawn) [Example 40] and give its recorded Ki.
Given back: 13.8

Asked: Consider the molecule CCC1=C(C(=O)NCCCN2CCC(c3ccccc3)(c3ccccc3)CC2)C(c2ccc([N+](=O)[O-])cc2)C(C(N)=O)=C(C)N1 (stereo not drawn) [Example 81, hydrochloride] and give its recorded Ki.
Given back: 1.91

Asked: Consider the molecule COC(=O)C1=C(C)NC(C)=C(C(=O)NCCCN2CCC(c3ccccc3)(c3ccccc3)CC2)C1c1ccoc1 (stereo not drawn) [Example 23] and give its recorded Ki.
Given back: 14.5

Asked: Consider the molecule CC1=C(C(=O)NCCCN2CCC(c3ccccc3)(c3ccccc3)CC2)C(c2ccc([N+](=O)[O-])cc2)c2c([nH]c(=O)[nH]c2=O)N1 (stereo not drawn) [Example 64] and give its recorded Ki.
Given back: 35.5

Asked: Consider the molecule COC(=O)C1=C(C)NC(C)=C(C(=O)NCCCN2CCC(c3ccccc3)(c3ccccc3)CC2)C1Cc1ccccc1 (stereo not drawn) [Example 8] and give its recorded Ki.
Given back: 75.9
